- assayDetails: Ratio of drug level in brain to plasma in rat
- Type: ADME
reportedProperty: Kp

Prompt line: Supply reported Kp belonging to this compound: `Cc1nc2cccc(Cl)c2c(=O)[nH]1`
Response line: 0.82

====

- testedSystem: Poly [ADP-ribose] polymerase 2 (Homo sapiens)
- Sequence (Q9UGN5 whole entry): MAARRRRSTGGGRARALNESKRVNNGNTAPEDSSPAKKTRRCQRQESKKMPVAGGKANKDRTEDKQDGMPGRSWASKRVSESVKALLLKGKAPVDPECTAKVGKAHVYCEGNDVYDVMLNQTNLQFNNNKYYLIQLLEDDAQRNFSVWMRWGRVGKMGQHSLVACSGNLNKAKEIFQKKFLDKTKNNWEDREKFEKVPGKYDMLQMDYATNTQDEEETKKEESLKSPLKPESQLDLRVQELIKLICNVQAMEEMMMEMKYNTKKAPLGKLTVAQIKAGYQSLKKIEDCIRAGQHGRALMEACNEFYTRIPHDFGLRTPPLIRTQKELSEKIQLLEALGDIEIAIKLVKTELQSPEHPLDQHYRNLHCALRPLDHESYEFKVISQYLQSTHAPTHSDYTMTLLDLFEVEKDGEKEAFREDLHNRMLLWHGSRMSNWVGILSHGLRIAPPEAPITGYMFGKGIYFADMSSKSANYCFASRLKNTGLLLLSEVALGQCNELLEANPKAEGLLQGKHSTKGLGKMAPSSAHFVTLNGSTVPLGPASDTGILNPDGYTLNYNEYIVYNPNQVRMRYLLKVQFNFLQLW
reportedProperty: pIC50
Scale note: pIC50 = -log10(concentration in M).

Prompt line: Provide the reported pIC50 (system: Poly [ADP-ribose] polymerase 2 (Homo sapiens)) for `O=c1[nH]c(CCCN2CC=C(c3ccc(F)cc3)CC2)nc2c(Cl)cccc12`
Response line: 6.30

====

- assayDetails: in vivo
- measurementSetup: rat, brain/plasma, 10 mg/kg
- Description: Ratio of drug level in brain to plasma in rat at 10 mg/kg/hr after 6 hrs
reportedProperty: Kp at 6 h
Kindly provide the number alone.

Prompt line: Supply reported Kp at 6 h belonging to this molecule: `CN(C)Cc1ccc(-c2c[nH]c(=O)c3cccc(O)c23)cc1`
Response line: 0.8

====

- assayDetails: Half life in human patient at 200 to 800 mg, iv
- Format: ADME, organism-based
- measurementSetup: in vivo
reportedProperty: half-life (h)
Give just the numeric value; h need not be written.

Prompt line: Supply reported half-life belonging to this molecule: OC[C@H]1O[C@@H](n2cnc3c(O)ncnc32)[C@H](O)[C@@H]1O [INOSINE]
Response line: 7.5

====

- assayDetails: Half life in human patient at 2.8 mg/kg, iv
- Assay type: ADME, organism-based
- Parameters: dose 2.8 mg/kg, route intravenous
- measurementSetup: in vivo
reportedProperty: half-life (min)
Give just the numeric value; min need not be written.

Prompt line: Supply reported half-life belonging to this molecule: NC(=O)c1ccc(I)c([N+](=O)[O-])c1 [INIPARIB]
Response line: 4

Reference source for all entries: ChEMBL document CHEMBL1177697
